- Measurement parameters: buffer; pH 7.4; 200.0 µM

# Compound, Units, Qualifier operator, solubility kinetic
rows = [
    ("C/C(=N\\NC1=NCCN1)c1ccc(N)c([N+](=O)[O-])c1", "µg/mL", ">", 39.3),
    ("CC(C)CC(C(=O)Nc1cccc(O)c1)N1C(=O)c2ccccc2C1=O (centres undefined)", "µg/mL", ">", 52.9),
    ("CN1C(c2ccccc2)=NO[C@]1(C)c1ccccc1", "µg/mL", "=", 35.9),
    ("CC(=O)c1cn(C2OC(CO)C3OC(C)(C)OC32)c(=O)n(C)c1=O (centres undefined)", "µg/mL", "=", 48.9),
    ("CN(CCC#N)C(=O)c1cc2c(Cl)nc3ccccc3c2s1", "µg/mL", "=", 1.1),
    ("S=C(NCCc1ccccc1)Nc1ccccc1", "µg/mL", "=", 31.5),
    ("CCCCS(=O)(=O)N1CCCC(C(=O)Nc2ccc(Cl)cn2)C1 (centres undefined)", "µg/mL", "=", 19.9),
    ("O=C(/C=C/c1ccc(F)cc1)NC(=S)NC1CCCCC1", "µg/mL", "=", 0.5),
    ("O=C(Nc1cccc(C(=O)NC2CCCC2)c1)c1ccccc1", "µg/mL", "=", 21.1),
    ("O=C1NC(=Nc2cccnc2)S/C1=C\\c1cccc(F)c1", "µg/mL", "=", 3.2),
    ("Cc1ccccc1-n1nc2c(c1NC(=O)C(C)(C)C)CS(=O)(=O)C2", "µg/mL", ">", 52.1),
    ("Cc1nc(NC(=O)COC(=O)c2ccc(CO)cc2)c(Cl)cc1Cl", "µg/mL", "=", 21.9),
    ("COC(=O)CCCCCCCCC(O)CN(C)C (centres undefined)", "µg/mL", "=", 27.7),
    ("CC1CN(C(=S)Nc2ccc(Cl)cc2)CC(C)O1 (centres undefined)", "µg/mL", ">", 42.7),
    ("CC(C)[C@H](NS(=O)(=O)c1ccccc1)C(=O)Nc1nccs1", "µg/mL", "=", 7.2),
    ("COc1ccc(-c2nc(C)sc2CC(=O)O)cc1OC", "µg/mL", "=", 42),
    ("COc1ccccc1NC(=O)COC(=O)c1ccc(S(=O)(=O)N2CCCCCC2)cc1", "µg/mL", "=", 2.6),
    ("CCOC(=O)c1ccc(S(=O)(=O)N2CCN(CCc3ccncc3)CC2)cc1", "µg/mL", ">", 60.5),
    ("Cc1nc(SCC(=O)N2CCCCC2)c2c(C)c(C)sc2n1", "µg/mL", "=", 33.7),
    ("CC1(CCCN2C(=O)c3ccccc3C2=O)OCCO1", "µg/mL", ">", 41.3),
    ("O=C(CCCc1nc(-c2ccccc2Cl)no1)N1CCOCC1", "µg/mL", ">", 50.4),
    ("Cn1cc(Br)c(-c2cccc(N3C(=O)CCCC3=O)c2)n1", "µg/mL", ">", 52.2),
    ("Cc1cc(N2CCOCC2)nc(SCC(=O)OCc2ccccc2)n1", "µg/mL", ">", 53.9),
    ("N#C/C(=C\\c1ccccc1)C(=O)Nc1cccnc1", "µg/mL", "=", 18.3),
]

====

- Measurement parameters: buffer; pH 7.4; 200.0 µM
Classification field: Met = solubility kinetic at or over 10 µg/mL; Not met = solubility kinetic under 10 µg/mL.

# Compound, Group
rows = [
    ("CCc1noc(C)c1C(=O)NCCc1ccc(F)cc1", "Met"),
    ("CS(=O)(=O)/C(C#N)=C/c1c(-c2ccccc2)nc2n1CCS2", "Not met"),
    ("O=C1c2cccc3cccc(c23)N1Cc1cccc(F)c1", "Not met"),
    ("CC(=O)c1cccc(NC2c3ccccc3C(=O)N2Cc2ccco2)c1 (stereo not given)", "Met"),
    ("NC(=O)/C(=C\\c1cccnc1)NC(=O)c1ccccc1", "Met"),
    ("O=C(COC(=O)c1cc[n+]([O-])cc1)Nc1ccc(Cl)cc1Cl", "Met"),
    ("O=C(NCCNC(=O)c1ccc(F)cc1)c1ccc(F)cc1", "Met"),
    ("O=C(Nc1c[nH]c(=O)[nH]c1=O)c1ccccc1Br", "Met"),
    ("COc1ccc(C(=O)N/C(=C\\c2ccccc2)C(=O)Nc2ccccc2C(=O)O)cc1", "Met"),
    ("Fc1ccc(F)c(NC2=NCCCCC2)c1", "Met"),
    ("O=C(COC(=O)c1ccc(O)cc1O)NC1CCCCCC1", "Met"),
    ("CCCn1c(=O)c2[nH]cnc2n(-c2ccccc2C)c1=O", "Met"),
    ("N#Cc1c(N)n(-c2ccc(O)cc2)c2nc3ccccc3nc12", "Not met"),
    ("CC(C)CCOc1cccc(OCC(=O)Nc2ccncc2)c1", "Met"),
    ("Cc1cccc(NC(=O)c2c(O)c3ccccc3n(C)c2=O)c1", "Not met"),
    ("COc1ccccc1OCC(O)CN1CCN(C(=O)c2ccccc2)CC1.Cl (stereo not given)", "Met"),
    ("Cc1cc(/C=C2\\SC(=S)N(C)C2=O)c(C)n1-c1cccc(O)c1", "Not met"),
    ("CCn1c(Oc2ccccc2F)nc2c1c(=O)n(C)c(=O)n2C", "Met"),
    ("CNC(=S)Nc1cccc(C(=O)OC)c1", "Met"),
    ("COc1ccc(Br)cc1/C=C/C(=O)OCC(=O)NCCc1ccc(S(N)(=O)=O)cc1", "Met"),
    ("N#C/C(=C\\c1ccccc1Cl)C(=O)Nc1ccccn1", "Met"),
    ("CC1CC(C)CN(C(=O)Nc2ccccc2F)C1 (stereo not given)", "Met"),
    ("Cc1ccccc1C(=O)NC(=S)N(C)C1CCCCC1", "Met"),
    ("O=S(=O)(Nc1cccc(S(=O)(=O)N2CCCCC2)c1)c1ccccc1F", "Met"),
    ("CSCC(=O)Nc1ccc(F)c(Cl)c1", "Met"),
]

====

# Lookup of reported solubility kinetic keyed by entry
- Measurement parameters: buffer; pH 7.4; 200.0 µM

# Structure, solubility kinetic
records = [
    ("CCCC(=O)Nc1nnc(-c2ccc3c(c2)OCCO3)o1", "> 43.4 µg/mL"),
    ("CCN(CC)c1ccc2c(O)cc(=O)oc2c1", "> 35 µg/mL"),
    ("COc1ccc(C(=O)Nc2cc(C(=O)O)cc(C(=O)O)c2)cc1Cl", "> 52.5 µg/mL"),
    ("O=C(O/N=C1/CCCc2occc21)c1ccc(Cl)cc1Cl", "< 0.7 µg/mL"),
    ("CCc1c(C)sc(NC(=S)Nc2nc(C)cc(C)n2)c1C(=O)OC", "< 0.2 µg/mL"),
    ("Nc1nonc1OCCCCOc1nonc1N", "21.1 µg/mL"),
    ("COc1ccccc1Nc1ncnc2sccc12", "30.1 µg/mL"),
    ("Cc1ccc(SCC(=O)NC(=O)c2ccccc2Br)c(C)c1", "> 56.7 µg/mL"),
    ("CCCCN(C(=O)COC(=O)c1ccccc1)c1c(N)n(CCC)c(=O)[nH]c1=O", "> 60.4 µg/mL"),
    ("O=C(CSc1nccn1-c1ccccc1)NCc1ccc(F)cc1", "33.5 µg/mL"),
    ("O=C(NNC(=S)NC(=O)c1ccccc1)c1cccnc1", "> 45.1 µg/mL"),
    ("CCOc1ccccc1NC(=O)c1cccc2ccccc12", "7.7 µg/mL"),
]

====

- Measurement parameters: buffer; pH 7.4; 200.0 µM
Assay metric: solubility kinetic (µg/mL)

# Compound, Qualifier operator, Data value
measured = [
    ("Cc1csc(SCC(=O)Nc2sccc2C(N)=O)n1", "=", 43.8),
    ("O=C(Cc1c(Cl)cccc1Cl)OCC(=O)N1CCOCC1", ">", 49.8),
    ("CC(=O)c1c(C)[nH]c(C(=O)/C(C#N)=C/c2cccc(C)c2)c1C", "=", 39.5),
    ("Cl.c1ccc(SCCCCN2CCOCC2)cc1", "=", 38.2),
    ("CSCC(=O)NCC1(N(C)Cc2ccccc2)Cc2ccccc2C1", ">", 53.2),
    ("CCC(=NCc1cccnc1)c1c(O)n(-c2ccc(C)cc2)c(=O)[nH]c1=O", "=", 31.6),
    ("CC(=O)Nc1nc(-c2ccc3c(c2)OCO3)cs1", "=", 8.5),
    ("CCOC(=O)n1c(=O)n(Cc2ccc(OC)cc2)c2ccccc21", "=", 29.5),
    ("O=C(COc1ccccc1)N1CCN=C1SCc1ccccc1", "=", 14.3),
    ("CCOC(=O)C1CCCN(CCc2ccccc2)C1 (centres undefined)", "=", 32.1),
    ("Cc1ccc(NC(=O)Cn2c(=O)oc3ccccc32)cc1C", "=", 4.2),
    ("CC(=O)NCCc1nc2cc(NC(=O)c3cccs3)ccc2n1C", ">", 51.4),
    ("COc1ccc(CCNCC2CCCO2)cc1.Cl (centres undefined)", "=", 35.2),
    ("CC(=O)Oc1cc(C(=O)OCC(=O)N2CCc3ccccc3C2)cc(OC(C)=O)c1OC(C)=O", ">", 70.4),
    ("O=C(NC1CCN(C(=O)NCc2ccccc2)CC1)c1ccccc1", "=", 6.2),
    ("O=C(COC(=O)c1ccc(O)cc1)Nc1ccc(S(=O)(=O)N2CCOCC2)cc1", "=", 52.4),
    ("Cc1ccc(OCCn2cc(C=O)c3ccccc32)cc1", "=", 5.3),
    ("CSc1ncccc1C(=O)Nc1cccc(S(=O)(=O)N2CCCC2)c1", ">", 56.6),
    ("O=C1Nc2ccc(Br)cc2C1=C1CCCCC1", "=", 7.4),
    ("CCCn1c(=O)c2[nH]c(-c3ccc(S(=O)(=O)O)cc3)nc2n(CCC)c1=O", ">", 58.9),
    ("Cc1[nH]c(=O)[nH]c(=O)c1S(=O)(=O)Nc1ccc(F)cc1Cl", ">", 50.1),
    ("COc1cc(OC)cc(C(=O)NC2CC3CCC(C2)N3C)c1 (centres undefined)", "=", 38.4),
    ("COc1ccc2c(c1)c(C(C)=O)c(C)n2-c1ccc(C(C)=O)cc1", "<", 0.7),
    ("CN(C)c1ncnc2sc(-c3ccccc3)cc12", "=", 3),
    ("CC1CC(C)(C)NC(=S)N1CCC(=O)N1c2ccccc2CC1C (centres undefined)", "=", 5.3),
    ("CC(=O)Nc1ccc2c(c1)CCc1ccccc1-2", "=", 3.9),
    ("O=C(Nc1ccsc1C(=O)O)c1ccccc1Cl", ">", 42.3),
    ("O=C(Nc1ccc2ncccc2c1)c1ccccc1", "=", 30.7),
    ("Cn1c(N2CCOCC2)c(C#N)c2ccccc21", "=", 17),
    ("Cc1ccc(OCCNC(=O)CNC(=O)c2ccc(C)cc2)cc1", "=", 6.8),
    ("Cc1csc(NC(=O)CSC2=NCCS2)n1", "=", 40.5),
    ("CC(=O)c1c(C)[nH]c(C(=O)Nc2ccc(C)cc2Br)c1C", "=", 0.8),
    ("Cc1ccc(OCCCCN2CCc3ccccc3C2)cc1.Cl", "=", 22.8),
    ("O=C(O)C(Sc1ccncn1)c1ccccc1 (centres undefined)", "=", 26.4),
    ("O=C(OCC(=O)N1CCOCC1)c1ccccc1Br", ">", 49.2),
    ("CCN(CC)CCNC(=O)c1cc2ccccc2nc1Cl", "=", 31.2),
    ("CC(c1ccccc1)n1c(CO)nc2ccccc21 (centres undefined)", "=", 35.2),
    ("CC(=O)Nc1ccc(-c2nc3ccccc3o2)cc1", "=", 1.3),
    ("CCOc1ccc(C(=O)NCc2ccco2)cc1OCC", "=", 22.5),
    ("CC(C)CC(=O)Nc1ccc2ccccc2c1", "=", 6.2),
    ("O=C(CSc1nncc2ccccc12)Nc1ccccc1", ">", 44.3),
    ("CC(=O)Nc1ccc(NC(=S)NC(=O)C2CCCC2)cc1", ">", 45.8),
    ("CC(C)(C)c1ccccc1NC(=O)C1=COCCO1", ">", 39.2),
    ("CC(=O)OCc1c(-c2ccccc2)c2cc([N+](=O)[O-])ccc2n1C", "=", 0.7),
    ("O=C(CNC(=O)c1ccccc1)NCC(c1ccco1)N1CCCC1 (centres undefined)", ">", 51.2),
    ("O=C(/C=C/C=C/c1ccccc1)CC1(O)C(=O)Nc2ccccc21 (centres undefined)", ">", 47.9),
    ("COc1ccc(C(CNC(=O)c2cccc(S(=O)(=O)N3CCOCC3)c2)N2CCOCC2)cc1 (centres undefined)", ">", 73.4),
    ("CSc1ncccc1C(=O)OCc1cccc([N+](=O)[O-])c1", "<", 0.3),
    ("COc1ccccc1C/C(N)=N/OC(=O)COc1cccc(C)c1C", "=", 8.2),
]
